meta.source: PubChem BioAssay (NCI)

system: TK-10 renal; experiment: NCI-60 one-dose screen, 48 h; details: 10 µM unless noted
Compounds without any hit were thinned out: in the full panel of roughly 83,000, 20% have a hit. Activity calls are given as the source filed them. The calls were made as follows: active = growth percent below 10; inactive = the rest.
Valid outcomes are listed here; reply with one: active, inactive

Known results for compounds:
Compound | Discrete Label
COc1ccccc1N1C(=N)S/C(=C\c2ccc(OCc3ccccc3F)cc2)C1=O | inactive
O=C(Nc1ccccc1O)c1ccc(Oc2cccc(C(=O)Nc3ccccc3O)c2)cc1 | inactive
Cc1ccc(C(=O)c2oc3ccc4c(C)cc(=O)oc4c3c2C)cc1 | inactive

Tell me the recorded outcome of this test for CCCCCCn1c(=N)n(CC(O)COc2cccc(C)c2)c2ccccc21 (stereo not given) . active

Call for entry O=C(CN1C(=O)/C(=C\c2ccc(Cl)cc2)SC1=S)Nc1ncc(Cc2ccc(Cl)cc2)s1 : inactive

###

system: MALME-3M melanoma; assay: NCI-60 one-dose screen, 48 h (100 = growth as untreated, 0 = no growth, -100 = all killed); details: 10 µM unless noted
Compounds without any hit were thinned out: in the full panel of roughly 83,000, 20% have a hit.
Think of 20% as a floor: if growth stands on it or above, it is Satisfied; beneath it, Not satisfied.

Reference set, count: 4
Compound | Discrete Label
COC(=O)[C@@H]1CCCN1C(=O)[C@H]1CCCN1C(=O)[C@@H](Cc1c[nH]c2ccccc12)NC(=S)Nc1cc(C(F)(F)F)cc(C(F)(F)F)c1 | Satisfied
COc1cccc(/C(C#N)=C/c2nc3c(N4CCOCC4)nc(Cl)nc3n2C)c1 | Not satisfied
COc1ccc(CN2CCCC(C(=O)c3ccc(C(F)(F)F)cc3)C2)c(O)c1 (stereo not given) | Not satisfied
COc1ccc(S(=O)(=O)N(Cc2ccc3c(n2)C=CC(C)(C)O3)C2CCC2)cc1OC | Not satisfied

Next compound, please.
Could you please find out whether COc1ccc(Cn2c(Br)c3c(c2Br)-c2nc(N)sc2CC3)cc1 has growth that meets 20% or exceeds it? Satisfied

###

test system: SNB-75 CNS; test: NCI-60 one-dose screen, 48 h; conditions: 10 µM unless noted
This is part of a sample that, as a whole, favours compounds with a hit. Of some 83,000 tested, about 20% had one in any assay. Activity calls are given as the source filed them. Rule for the calls: active = growth percent below 10; inactive = the rest.
// allowed return values: active, inactive

These recorded examples may help you get a feel for the data.
Chemical Structure | Target Desc | Discrete Label
O=c1cc(-c2ccccc2)oc2cc(OCc3cn(Cc4ccc(F)cc4)nn3)cc(OCc3cn(Cc4ccc(F)cc4)nn3)c12 | SNB-75 CNS | active
Cn1nc(C(C)(C)C)cc1NC(=O)Cc1ccc(/C=C2\C(=O)Nc3ccccc32)cc1 | SNB-75 CNS | inactive
C1CCN(c2nc(N3CCCCC3)nc(N3CCOCC3)n2)CC1 | SNB-75 CNS | inactive
COc1ccc(C2=C(c3cccc(OC)c3)C(=O)c3ccc(C)nc3C2=O)cc1 | SNB-75 CNS | inactive
COc1ccc2sc3c(NCCCN)nc4ccccc4c3c(=O)c2c1 | SNB-75 CNS | inactive
CC/C=C\C[C@H](O)C/C=C1/C(=O)C=C[C@@H]1C/C=C\CCCC(=O)OCCS(=O)(=O)c1ccccc1 | SNB-75 CNS | inactive

Now examine the next entry.
Identify the outcome logged in this assay for the compound shown: O=C(N/N=C/c1ccccc1O)C(=O)Nc1ccc(F)cc1 inactive

###

tested on: SR leukemia; assay: NCI-60 one-dose screen, 48 h; conditions: 10 µM unless noted
Compounds without any hit were thinned out: in the full panel of roughly 83,000, 20% have a hit. Calls of active or inactive are those of the source. How the source made its calls: active means growth percent below 10; inactive means the rest.
// one of active, inactive, no free text

Chemical Structure | Discrete Label
Nc1ccc(-c2ccc(-c3ccccc3N)c3[nH]c4ccccc4c23)cc1 | inactive
Cc1cc(Nc2ccc(OCc3ccccc3)cc2)nc2cc(O)ccc12 | active
O=C(Nc1ccc(C23CC4CC(CC(c5ccccc5)(C4)C2)C3)cc1)c1cccs1 | inactive

Could you please tell me the result logged for Oc1ccc(-c2nc(-c3ccc4oc5ccc(-c6[nH]c(-c7ccc(O)cc7)nc6-c6ccccc6)cc5c4c3)c(-c3ccccc3)[nH]2)cc1 in this assay? inactive

In this assay, the call recorded for COc1ccc(-c2cc(=O)c3c(OC)c4ccoc4c(/C=C/C=O)c3o2)cc1 was what? active

###

Tested on: HS 578T breast
Experiment: NCI-60 one-dose screen, 48 h
Settings: 10 µM unless noted
Experimental: Growth inhibition of the HS 578T human tumor cell line is measured as a screen for anti-cancer activity. Cells are grown in 96 well plates and exposed to the test compound for 48 hours. Compounds are tested at a single concentration, which is 10^-5 M for most compounds. The reported endpoint is percent growth (GI% or GIPRCNT), where numbers from 0 - 100% represent growth inhibition, and numbers from -100% - 0 represent cell death. For example, a value of 40 represents 60% growth inhibition. […]
Compounds without any hit were thinned out: in the full panel of roughly 83,000, 20% have a hit. Activity calls are given as the source filed them. Rule for the calls: active = growth percent below 10; inactive = the rest.
Write down one outcome, taken from true (1) = active, false (0) = inactive

Solved cases (6 shown):
Compound | Discrete Label
COc1ccc(C2=Nn3c(NN)nnc3SC2)cc1 | false (0)
CCCSC1=NC2C(N(CC)C(=O)N2CC)N1/N=C/C=C/c1ccccc1[N+](=O)[O-] (centres undefined) | false (0)
CCC(C)(C)C(=O)O[C@H]1C[C@@H](C)C=C2C=C[C@H](C)[C@H](CC[C@@H]3CC=CC(=O)O3)[C@H]21 | false (0)
O=C(CSc1ccc2nnc(-c3cccc(F)c3)n2n1)Nc1ccc2c(c1)OCO2 | false (0)
COc1ccc(C2=NN(/C=C3\SC(=O)NC3=Nc3ccc(F)cc3)C(c3ccc(F)cc3)C2)cc1 (centres undefined) | false (0)
CCn1c(SCC(=O)Nc2cc(C(F)(F)F)ccc2Cl)nc2ccccc2c1=O | false (0)

Could you please tell me the result logged for O=C(O)CCC(=O)c1ccc(C2CCCCCC2)cc1 in this assay? false (0)

Recorded test outcome, item COc1ccc(C2C3=C(COC3=O)N(CCO)c3cc4c(cc32)CCC4)cc1OC (centres undefined) false (0)

What outcome does the record of this test show for COC(=O)C1=Nc2ccc(F)cc2/C1=C/c1sc(=S)[nH]c1O ? false (0)

Which result was noted for this compound in the test: Cc1ccc(C2CC(c3ccc(Nc4nc(NCCO)nc(Nc5ccc(Cl)cc5)n4)cc3)=NN2c2cc(Cl)cc(Cl)c2)cc1 (centres undefined) false (0)

Query: recorded result category for O=C(Cn1cc(COc2ncnc3c2cnn3-c2ccccc2)nn1)Nc1ccccn1 in this test false (0)

Dear colleague, could you share the recorded outcome for COc1cc2c(cc1OC)C(=O)C(CC1CCN(C(=O)Nc3ccc(C)cc3)CC1)C2 (centres undefined) when you have a moment? false (0)

So what was the verdict on CC(C)[C@H](NC(=O)Cn1cc(C(=O)O)nn1)C(=O)O in this test? false (0)

Recorded test outcome, item COc1cc2cc3c(=O)n4c(cc5cc(OC)ncc54)c(=O)n3c2cn1 false (0)

Call for entry COC(=O)[C@H]1CCCN1C(=O)[C@H]1CCCN1C(=O)[C@H](Cc1c[nH]c2ccccc12)NC(=S)Nc1cc(C(F)(F)F)cc(C(F)(F)F)c1 : false (0)

Dear colleague, could you share the recorded outcome for CCN1C(=O)N(CC)C2Nn3c(s/c(=C4\C(=O)N(C(C)C)c5ccccc54)c3=O)=NC21 (centres undefined) when you have a moment? false (0)

Test call for this compound, please: O=C(NC1CCN(Cc2ccccc2)CC1)c1cc2nc(-c3ccc(Cl)s3)cc(C(F)(F)F)n2n1 false (0)

Hi, sorry to bother you, what did the test record for Cc1c(-c2csc(-n3nc(C(F)(F)F)cc3C(F)(F)F)n2)no[n+]1[O-] ? false (0)

Outcome logged for CCOC(=O)C1(C(=O)OCC)N=C(c2ccccc2)C=C1c1ccccc1 in this assay: false (0)

Recorded test call requested for CC1(O)COCCCCOc2c(CN)cccc2NC(=O)c2nc(cnc2N)-c2ccc(cc2)S(=O)(=O)C(C)(C)C1 (centres undefined) true (1)

Hi, sorry to bother you, what did the test record for Cc1ccc(C)c(-c2csc(Nc3ccc(C)c(C)c3)n2)c1 ? false (0)

Check the results log: what was the call for OCCNc1nc(Nc2ccc(C3=NN(c4cc(Cl)cc(Cl)c4)C(c4ccc(C(F)(F)F)cc4)C3)cc2)nc(N2CCOCC2)n1 (centres undefined) ? false (0)

Just curious, what result did CC(C)Cn1c2c(c(=S)[nH]c1=O)CCC2 get here? false (0)

// return assay outcome for Cc1cccc(NC(=O)c2sc3nc4c(cc3c2N)CCCC4)c1C false (0)

Name the outcome recorded for NC(CCl)=NCCC[C@H](N)C(=O)O in the assay. false (0)

Check the results log: what was the call for COC(=O)/C(CCC=C(C)C)=C1\[C@@H](OC(C)=O)C[C@@]2(C)[C@H]1C[C@@H](O)[C@H]1[C@@]3(C)CC[C@H](NCCCNCCCCNCCCN)[C@@H](C)[C@@H]3CC[C@@]12C ? false (0)

In this assay, the call recorded for CC(=O)O[C@@H]1/C=C/C(=O)N[C@@H](C)CCC/C=C/[C@@H]2CCC[C@H]21 was what? false (0)

How was CCOC(=O)CSc1c(-c2ccccc2)c2cc(Cl)ccc2[nH]c1=O classified in this test? false (0)

What outcome does the record of this test show for COc1cc(/C=C2\CN(C)C/C(=C\c3cc(CN4CCCC4)c(O)c(OC)c3)C2=O)cc(CN2CCCC2)c1O ? false (0)

Which outcome did this test record for the compound CCCCN1CCN(c2ccc3nc(-c4ccc5nc(-c6ccc(OC)c(OC)c6)[nH]c5c4)[nH]c3c2)CC1 ? true (1)

Assay outcome for O=C(Nc1ccc(I)cc1F)c1cc(F)ccc1O : what was it? true (1)

Look up the recorded call for O=c1c2cc(F)cc(Cl)c2sc2c(Cl)nc3ccccc3c12 in this test. false (0)

# outcome recorded in this test, key = CC(=O)c1ccc(NC(=O)Nc2ccc(S(=O)(=O)Nc3ccc(Cl)nn3)cc2)cc1 false (0)

Call for entry CCCCOCc1cc(CN2CCN(C)CC2)c(O)c2ncccc12 : false (0)

How did this test come out for O=C(Nc1nc2c(s1)CCc1c-2c(Br)n(Cc2ccccc2)c1Br)c1ccccc1 ? false (0)

Please state the recorded outcome for this compound: CCCC(=O)CC(C)=O.CCCC(=O)CC(C)=O.[Cu] false (0)
